Values were extracted from patent US10752587B2.

# Target: glutathione-S-transferase (GST) tagged LXRbeta LBD (ligand binding domain) (Homo sapiens, UniProt P55055)
# Construct: purchased Invitrogen pv4658.pps
# Sequence (P55055 222-460 limits assumed): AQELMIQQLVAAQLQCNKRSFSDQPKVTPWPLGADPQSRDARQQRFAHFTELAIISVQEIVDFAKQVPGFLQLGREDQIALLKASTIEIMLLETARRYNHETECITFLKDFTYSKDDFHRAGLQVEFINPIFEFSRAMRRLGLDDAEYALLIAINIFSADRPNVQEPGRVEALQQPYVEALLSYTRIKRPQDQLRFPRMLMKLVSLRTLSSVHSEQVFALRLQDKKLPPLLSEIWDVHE
# Protocol Description: LanthaScreen TR-FRET Liver X Receptor Coactivator Assay, co-activator recruitment to LXRbeta LBD
# Format: biochemical
# Condition Details: efficacy at max dose, in relation to reference dual agonist T0901317; read-out: LXR beta Activity @ max dose (%)
Measured Metric: Emax

{"columns": ["Compound", "Recorded Value"],
 "data": [
  ["Cc1cc(F)cc(C(O)(C(=O)N2CCC(CC3CCN(c4ccc(C(=O)N(C)C)c(Cl)c4)CC3)CC2)C(F)(F)F)c1 (centres unmarked)", "76%"],
  ["COc1nc(N2CCC(CC3CCN(C(=O)[C@](O)(c4cc(Cl)cc(Cl)c4)C(F)(F)F)CC3)CC2)ccc1C(=O)N(C)C", "79%"],
  ["CN(C)C(=O)c1ccc(N2CCC(CC3CCN(C(=O)C4(c5ccccc5)CCCC4)CC3)CC2)cc1Cl", "60%"],
  ["CN(C)C(=O)c1ccc(N2CCC(CC3CCN(C(=O)[C@](O)(c4cccc(Cl)c4)C(F)(F)F)CC3)CC2)cc1Cl", "68%"],
  ["Cc1cc(N2CCC(CC3CCN(C(=O)[C@](O)(c4cccc(C(C)C)c4)C(F)(F)F)CC3)CC2)ccc1C(=O)N(C)C", "54%"],
  ["COc1cccc([C@@](O)(C(=O)N2CCC(C)(CC3CCN(c4ccc(C(=O)N(C)C)c(Cl)c4)CC3)CC2)C(F)(F)F)c1", "18%"],
  ["COc1cccc([C@@](O)(C(=O)N2CCC(CC3CCN(c4ccc(C(N)=O)c(Cl)c4)CC3)CC2)C(F)(F)F)c1", "55%"],
  ["CN(C)C(=O)c1ccc(N2CCC(CC3CCN(C(=O)C(O)(c4cccc5c4CCC5)C(F)(F)F)CC3)CC2)cc1Cl (centres unmarked)", "19%"],
  ["CNC(=O)c1ccc(N2CCC(CC3CCN(C(=O)[C@](O)(c4cccc(OC)c4)C(F)(F)F)CC3)CC2)cc1Cl", "60%"],
  ["COc1cccc([C@@](O)(C(=O)N2CCC(CC3CCN(c4ccc(C(=O)N(C)C)c(Cl)c4)CC3)CC2)C(F)(F)F)n1 (stereo in doubt)", "108%"],
  ["CN(C)C(=O)c1ccc(N2CCC(CC3CCN(C(=O)C(O)(c4cccc(C#N)c4)C(F)(F)F)CC3)CC2)nc1Cl (centres unmarked)", "95%"],
  ["CN(C)C(=O)c1ccc(N2CCC(CC3(C)CCN(C(=O)[C@](O)(c4cc(F)cc(Cl)c4)C(F)(F)F)CC3)CC2)cc1Cl", "79%"],
  ["COc1cccc(C(O)(C(=O)N2CCC(CC3CCN(c4ccc(C(=O)N(C)C)c(Cl)n4)CC3)CC2)C(F)(F)C(F)(F)F)c1 (centres unmarked)", "80%"],
  ["CN(C)C(=O)c1ccc(N2CCC(CC3CCN(C(=O)[C@](O)(c4cc(F)cc(F)c4)C(F)(F)F)CC3)CC2)cc1Cl", "89%"],
  ["COc1cccc([C@@](O)(C(=O)N2CCC(CC3CN(c4ccc(C(=O)N(C)C)c(C5CC5)n4)C3)CC2)C(F)(F)F)c1", "91%"],
  ["COc1cccc([C@](N)(C(=O)N2CCC(CC3CCN(c4ccc(C(=O)N(C)C)c(Cl)c4)CC3)CC2)C(F)(F)F)c1", "99%"],
  ["COc1cc(F)cc([C@@](O)(C(=O)N2CC(CC3CCN(c4ccc(C(=O)N(C)C)c(Cl)c4)CC3)C2)C(F)(F)F)c1", "74%"]
]}
